This collection of values is drawn from patent US20240382509A1.

# PROTOCOL TEXT: MTT cell viability assay, fR2 normal epithelial cells
# Format: cell-based, human
# CONDITION CONTEXT: human, fR2 normal epithelial cells; MTT, 48 h; normal epithelial cell line; read-out: Cytotoxicity (IC50) fR2
Entries and their IC50 at 48 h

Would you please look over these solved cases?
[[record]]
compound = "CCCCCc1cc(O[C@@H]2OC(CO)[C@@H](O)C(O)C2O)c2c(c1)OC(C)(C)c1ccc(C)cc1-2 (stereo partly drawn) [Compound 4a, Cannabinol-1-O-β-D-glucopyranoside]"
measure_name = "IC50 at 48 h"
experimental_result = "> 100 µM"

[[record]]
compound = "CCCCCc1cc(O[C@@H]2OC(CO)[C@@H](O)C(O)C2O)c2c(c1)OC(C)(C)[C@@H]1CC=C(C)C[C@@H]21 (single isomer, unassigned)"
measure_name = "IC50 at 48 h"
experimental_result = "> 100 µM"


The recorded IC50 at 48 h for CCCCCc1cc(O[C@@H]2OC(CO)[C@@H](O)C(O)C2O)c2c(c1)OC(C)(C)[C@@H]1CCC(C)=C[C@@H]21 (stereo partly drawn) is > 100 µM
